- system under test: 3',5'-cyclic-AMP phosphodiesterase 4B (Homo sapiens) (UniProt Q07343)
- Sequence (Q07343 whole entry, looked up): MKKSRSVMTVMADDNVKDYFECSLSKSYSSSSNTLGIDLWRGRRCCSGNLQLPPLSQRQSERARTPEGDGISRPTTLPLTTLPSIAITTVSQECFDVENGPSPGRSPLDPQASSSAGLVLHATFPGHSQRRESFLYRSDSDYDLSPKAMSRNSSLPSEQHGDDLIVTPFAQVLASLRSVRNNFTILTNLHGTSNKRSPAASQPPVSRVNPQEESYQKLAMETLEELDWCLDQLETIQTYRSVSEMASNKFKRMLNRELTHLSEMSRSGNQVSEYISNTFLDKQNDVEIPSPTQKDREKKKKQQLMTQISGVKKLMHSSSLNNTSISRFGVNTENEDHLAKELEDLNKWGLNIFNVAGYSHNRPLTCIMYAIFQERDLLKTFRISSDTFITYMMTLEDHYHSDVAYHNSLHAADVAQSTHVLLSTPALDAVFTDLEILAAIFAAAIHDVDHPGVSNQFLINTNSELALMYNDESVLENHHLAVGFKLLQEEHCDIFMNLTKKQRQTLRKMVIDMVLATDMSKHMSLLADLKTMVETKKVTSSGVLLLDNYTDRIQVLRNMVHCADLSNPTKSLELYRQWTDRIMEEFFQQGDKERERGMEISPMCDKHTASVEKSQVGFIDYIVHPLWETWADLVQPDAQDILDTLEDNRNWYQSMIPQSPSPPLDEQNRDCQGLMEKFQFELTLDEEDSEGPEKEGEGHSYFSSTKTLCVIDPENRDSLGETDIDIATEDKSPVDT
- test protocol: qHTS Assay for Inhibitors of PDE-IV (AID 607); note: % of control where 0% means no effect
- condition notes: HEK293 ACTOne CNG channel cells, membrane potential fluorescence; series mostly up to 22.9 µM
- Experimental: NIH Chemical Genomics Center [NCGC] NIH Molecular Libraries Screening Centers Network [MLSCN] […] Here we report the development of a cell-based screening assay for cAMP phosphodiesterase (PDE) inhibitors. […] The influx of cations through the CNG channel can be quantified using membrane potential (MP) dyes. […] The activity of the CNG channel was measured by BD ACTOneTM membrane potential dye kit (BD Biosciences). […]
Results filed as inconclusive are left out. Activity calls are given as the source filed them. Calls come from the whole dose curve; as a rule, active = well fitted activation curve with a large enough effect in the main read-out, with a control signal flat (not every such curve was filed as active); inconclusive = small, poorly fitted or top-dose-only effect, or effect the other way, or a change in a side signal; inactive = flat fitted curve, though single readings scatter.
readout name: outcome

Recorded outcome, per entry:
{"smiles input": "c1ccc2c(c1)-c1nc3ccccc3cc1[C@H]2N1CCOCC1", "observed measurement": "inactive"}
{"smiles input": "CN(C)CN1C(=O)S/C(=C2/C(=O)N(CN(C)C)c3ccccc32)C1=O", "observed measurement": "inactive"}
{"smiles input": "Cn1c(=O)c(CCc2ccccc2)nc2cnc(N3CCNCC3)nc21", "observed measurement": "inactive"}
{"smiles input": "Nc1cccc2nsnc12", "observed measurement": "inactive"}
{"smiles input": "CN(C)CCC(=O)[C@@]1(O)CC[C@H]2[C@H]3CC=C4C[C@@H](O)CC[C@]4(C)[C@H]3CC[C@]21C", "observed measurement": "inactive"}
{"smiles input": "C[N+]1(C)CCc2cc(O)c(O)cc2[C@H]1Cc1ccc(O)c(O)c1", "observed measurement": "inactive"}
{"smiles input": "C[C@H]1[C@H](O)[C@@H](C)C=CC=CC=CC=CC=CC=CC=C[C@H](O[C@@H]2O[C@@H](C)[C@H](O)[C@@H](N)[C@@H]2O)C[C@@H]2O[C@](O)(C[C@@H](O)C[C@@H](O)[C@@H](O)CC[C@@H](O)C[C@@H](O)CC(=O)O[C@H]1C)C[C@H](O)[C@H]2C(=O)O", "observed measurement": "inactive"}
{"smiles input": "Cn1c(=O)c2c(nc(C(=N)SCC(=O)O)n2C)n(C)c1=O", "observed measurement": "inactive"}
{"smiles input": "COc1cccc2[nH]c(-c3ccccn3)nc12", "observed measurement": "inactive"}
{"smiles input": "c1ccc2sc(SCSc3nc4ccccc4s3)nc2c1", "observed measurement": "inactive"}

Incoming: So what's the measured outcome for this one? CN(C)CCCc1c2ccccc2nc2ccc(Cl)cc12
Outgoing: inactive

Incoming: So what's the measured outcome for this one? Cc1ccc([C@@]2(C)CC/C(=N/N=C3\CC[C@](C)(c4ccc(C)c(C)c4)c4cc(C)c(C)cc43)c3cc(C)c(C)cc32)cc1C
Outgoing: inactive

Incoming: So what's the measured outcome for this one? Nc1ncnc2c1ncn2C[C@@H](O)C(=O)O
Outgoing: inactive

Incoming: So what's the measured outcome for this one? CC(=O)CSCc1ccccn1
Outgoing: inactive

Incoming: So what's the measured outcome for this one? Cc1cc(N=Cc2c(CO)cnc(C)c2O)c(N=Cc2c(CO)cnc(C)c2O)cc1C.[Zn]
Outgoing: inactive

Incoming: So what's the measured outcome for this one? c1ccc(CN2CCC3(CC2)SSC2(CCN(Cc4ccccc4)CC2)SS3)cc1
Outgoing: inactive

###

- test protocol: Cell Viability - LYMP2-001 (AID 921);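 note: cells exposed to compound for 24 h at 37 °C; 0% = DMSO only and full inhibition = tetraoctylammonium bromide control wells; nearly all actives have a fitted effect of over 70% in size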
- condition notes: LYMP2-001 lymphoblastoid cell viability; series mostly up to 92.2 µM
Inconclusive results are not listed. Calls of active or inactive are those of the source. The call rests on the fitted dose curve; in most records, active means well fitted cell-killing curve with a large enough effect; inconclusive means small, poorly fitted or top-dose-only effect; inactive means no such curve, though single readings can be large or run the other way.
Respond using exactly one of the listed classes: true (active), false (inactive)

Solved entries (count: 5):
{"compound": "c1ccc(CSCc2ccccc2)cc1", "classification": "false"}
{"compound": "C=CC1CO1 (stereo not drawn)", "classification": "false"}
{"compound": "CC(=O)c1ccc(Cl)c(Cl)c1Cl", "classification": "false"}
{"compound": "CCCCCCCCC1CO1 (stereo not drawn)", "classification": "false"}
{"compound": "C/C(Cl)=C/CCl", "classification": "false"}

Consider the additional compound presented here.
Incoming: Just curious, what result did c1ccc2c(c1)ccc1ccccc12 get here?
Outgoing: false

###

- test protocol: AP1 Signaling Pathway (AID 357);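 note: ME-180 reporter cells stimulated with EGF at its EC50 level; % is set by controls: 0 for no effect and ±100 for the full control effect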
- condition notes: ME-180 AP-1-bla reporter, EGF-induced, beta-lactamase ratio, 5 h; at 7.69 µM (top of the series) unless noted
Results filed as inconclusive are left out. The source made the active and inactive calls. The call rests on the fitted dose curve; in most records, active means well fitted curve in either direction with a large enough effect (not every such curve was filed as active); inconclusive means small, poorly fitted or top-dose-only effect, or another doubt; inactive means flat fitted curve, though single readings scatter.
activity change, negative = inhibition listing for selected molecules.

Recorded activity change, negative = inhibition, per entry:
{"smiles input": "COc1cc(O)c2c(O)c3c(c4c2c1[C@@]1(C4)C(C)=CCCC1(C)C)[C@H](O)[C@@]1(O)CC(=O)C(C(N)=O)=C(O)[C@]1(O)C3=O", "activity change, negative = inhibition": "-27.8% (inactive)"}
{"smiles input": "CC(C)(C)c1ccc(O)c(CN(Cc2cc(C(C)(C)C)ccc2O)C2CCCCC2)c1", "activity change, negative = inhibition": "5.42% (inactive)"}
{"smiles input": "Cc1ccc(S(=O)(=O)O[C@@H]2[C@H]([C@@H]3COC(C)(C)O3)O[C@H]3OC(C)(C)O[C@@H]32)cc1", "activity change, negative = inhibition": "1.73% (inactive)"}
{"smiles input": "OC[C@@H]1O[C@@H](n2cnc3c(NC4CCCC4)ncnc32)[C@@H](O)[C@H]1O", "activity change, negative = inhibition": "-0.201% [at 38 µM] (inactive)"}
{"smiles input": "CCNc1ncc2nc(-c3ccccc3)c(=O)n(C3CC3)c2n1", "activity change, negative = inhibition": "-3.39% (inactive)"}
{"smiles input": "O=C(O)c1ccc(S(=O)(=O)N=Nc2c(O)[nH]c3ccccc23)cc1", "activity change, negative = inhibition": "-0.32% (inactive)"}
{"smiles input": "CC1=C(\\C=C/C(C)=C/C=C\\C(C)=C\\C(=O)Nc2ccc(O)cc2)C(C)(C)CCC1", "activity change, negative = inhibition": "-16.4% [at 38 µM] (inactive)"}
{"smiles input": "O=C(O)CSc1ccc(N=C=S)cc1", "activity change, negative = inhibition": "7.13% (inactive)"}

Now take the following molecule into account.
Incoming: So what's the measured activity change, negative = inhibition for this one? COc1cc2c(cc1OC)[C@H](c1ccccc1)CN(C)CC2
Outgoing: -2.12% [at 38 µM] (inactive)

###

- test protocol: Stat Signaling Pathway (AID 446);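 note: ME-180 cervical cancer cells given 40 pM IL-6 alongside compound; SIE-controlled beta-lactamase reporter measured as 460/530 nm FRET emission ratio; % is set by controls: 0 for no effect and ±100 for the full control effect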
- condition notes: ME-180 SIE beta-lactamase reporter, IL-6 stimulated, 5 h; at 7.69 µM (top of the series) unless noted
Inconclusive results are not listed.
readout name: activity, negative = inhibition (%)
Quick reminder: number only, in %, skip the unit.

{"smiles input": "Cc1ccc(S(=O)(=O)Nc2cc(=O)[nH]c3c2CCC3)cc1", "quantity unit": "%", "activity, negative = inhibition": -3.68}
{"smiles input": "Cc1cc(O)c(C(C)C)cc1N=Cc1ccccc1O", "quantity unit": "%", "activity, negative = inhibition": -2.05}
{"smiles input": "CC(C)(C)CC(C)(C)c1ccc(O)c(C[N+](C)(C)[O-])c1", "quantity unit": "%", "activity, negative = inhibition": 0.425}

Incoming: So what's the measured activity, negative = inhibition for this one? O=C1CNCCCN2CCN(CCCNCC(=O)Nc3ccc(cc3)S(=O)(=O)c3ccc(cc3)NC(=O)CNCCCN3CCN(CCCNCC(=O)Nc4ccc(cc4)S(=O)(=O)c4ccc(cc4)N1)CC3)CC2
Outgoing: -11

Incoming: So what's the measured activity, negative = inhibition for this one? O=C1c2ccccc2C(=O)c2c1ccc(C(=O)O)c2-c1ccc2ccccc2c1
Outgoing: -16.8

###

activity change, negative = inhibition listing for selected molecules.
- test protocol: NFAT Signaling Pathway (AID 444);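 note: carbachol stimulus at about its EC50 of 1 µM final; % is set by controls: 0 for no effect and ±100 for the full control effect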
- condition notes: Jurkat NFAT-bla M1, carbachol, beta-lactamase ratio, 5 h; at 7.69 µM (top of the series) unless noted
- Method: NCGC Assay Overview: The nuclear factor of activated T cells (NFAT) family of transcription factors has been found primarily in most immune system cells and some other non-immune cells. NFAT plays the immunomodulatory role, primarily in T-cell activation and differentiation. […] NCGC Assay Protocol Summary: The cells were prepared in RPMI 1640 medium containing 0.1% dialyzed FBS and 25 mM HEPES at 1.6 x 10^6cell/ml. […] The %Activity was determined from the ratio of 460nm/530nm. […]
Inconclusive results are not listed. Activity calls are given as the source filed them. Calls come from the whole dose curve; as a rule, active = well fitted curve in either direction with a large enough effect (not every such curve was filed as active); inconclusive = small, poorly fitted or top-dose-only effect, or another doubt; inactive = flat fitted curve, though single readings scatter.

Incoming: So what's the measured activity change, negative = inhibition for this one? COc1ccc(Cc2ccc3[nH]c(=O)cc(C)c3c2)cc1S(=O)(=O)O
Outgoing: 8.36% (inactive)

###

- test protocol: Stat Signaling Pathway (AID 446);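 note: ME-180 cervical cancer cells given 40 pM IL-6 alongside compound; SIE-controlled beta-lactamase reporter measured as 460/530 nm FRET emission ratio; % is set by controls: 0 for no effect and ±100 for the full control effect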
- condition notes: ME-180 (cervical carcinoma) SIE beta-lactamase reporter, IL-6 stimulated, 5 h; at 7.69 µM (top of the series) unless noted
Results filed as inconclusive are left out.
activity, negative = inhibition listing for selected compounds.
Quick reminder: number only, in %, skip the unit.

Incoming: So what's the measured activity, negative = inhibition for this one? COc1ccc(OC)c(-c2cc(C(=O)O)c3cc4ccccc4cc3n2)c1
Outgoing: 4.07

Incoming: So what's the measured activity, negative = inhibition for this one? O=C(CCN1CCOCC1)Nc1ccc(F)cc1F
Outgoing: 8.47
